- systemUnderTest: ROCK1 (Homo sapiens)
- Sequence (Q13464 whole entry, species assumed): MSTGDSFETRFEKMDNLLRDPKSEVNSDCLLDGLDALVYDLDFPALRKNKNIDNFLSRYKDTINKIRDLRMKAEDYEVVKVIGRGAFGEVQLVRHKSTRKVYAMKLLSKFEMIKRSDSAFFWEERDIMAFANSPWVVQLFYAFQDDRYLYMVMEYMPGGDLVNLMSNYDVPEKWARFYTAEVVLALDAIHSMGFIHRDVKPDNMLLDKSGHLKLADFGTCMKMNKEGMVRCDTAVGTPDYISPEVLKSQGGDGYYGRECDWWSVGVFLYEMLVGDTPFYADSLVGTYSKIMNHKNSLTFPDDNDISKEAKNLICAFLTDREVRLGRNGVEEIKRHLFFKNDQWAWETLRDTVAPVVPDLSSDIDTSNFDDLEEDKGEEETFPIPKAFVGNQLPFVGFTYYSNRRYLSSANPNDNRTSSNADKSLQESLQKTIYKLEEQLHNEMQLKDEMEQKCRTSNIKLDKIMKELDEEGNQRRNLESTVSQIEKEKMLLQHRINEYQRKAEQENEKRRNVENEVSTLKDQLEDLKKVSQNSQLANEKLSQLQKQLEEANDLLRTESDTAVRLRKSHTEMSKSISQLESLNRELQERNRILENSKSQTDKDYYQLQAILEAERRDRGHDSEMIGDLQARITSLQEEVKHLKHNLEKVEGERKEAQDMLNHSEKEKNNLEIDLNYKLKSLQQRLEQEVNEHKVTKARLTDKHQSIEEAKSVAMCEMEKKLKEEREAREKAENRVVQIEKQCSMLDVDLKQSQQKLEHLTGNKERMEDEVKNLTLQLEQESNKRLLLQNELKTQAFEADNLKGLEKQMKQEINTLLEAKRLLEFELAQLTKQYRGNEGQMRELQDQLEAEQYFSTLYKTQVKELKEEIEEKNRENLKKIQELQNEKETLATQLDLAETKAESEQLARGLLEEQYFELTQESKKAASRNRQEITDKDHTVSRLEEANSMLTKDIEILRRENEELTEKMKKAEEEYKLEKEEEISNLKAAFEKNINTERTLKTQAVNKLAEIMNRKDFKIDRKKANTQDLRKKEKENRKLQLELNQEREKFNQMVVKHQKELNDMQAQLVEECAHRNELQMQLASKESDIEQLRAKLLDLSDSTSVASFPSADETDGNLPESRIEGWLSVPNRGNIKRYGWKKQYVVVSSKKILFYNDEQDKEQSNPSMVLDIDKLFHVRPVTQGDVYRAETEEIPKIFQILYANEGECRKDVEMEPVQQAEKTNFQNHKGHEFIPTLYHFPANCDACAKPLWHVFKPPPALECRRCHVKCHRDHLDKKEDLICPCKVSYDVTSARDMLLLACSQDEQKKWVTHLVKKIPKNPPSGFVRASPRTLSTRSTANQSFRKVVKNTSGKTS
- assayComment: ROCK kinase inhibition assay, ROCK1 enzyme;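 also: kinase reaction with 0.5 µM final ATP, 75 min at room temperature, remaining ATP read by luminescence, percent of DMSO-only control minus background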
- Format: biochemical
- experimentalParameters: ROCK1, Table 16
recordedEndpoint: Ki (nM)
Express the result in nM but write the number alone.

Field: example entries. Status: answers known.
>>> value("O=C(Nc1ccc2cnccc2c1)[C@@H]1C[C@H]1c1ccc(S(=O)(=O)NC2CCNCC2)cc1")
8.2
>>> value("O=C(Nc1ccc2cnccc2c1)[C@@H]1C[C@H]1c1ccc(F)c(S(=O)(=O)Nc2ccccn2)c1")
15
>>> value("O=C(Nc1ccc2cnccc2c1)[C@@H]1C[C@H]1c1ccc(S(=O)(=O)Nc2ccccc2)cc1")
154

Consider the record given below.
Q: Given O=C(Nc1ccc2cnccc2c1)[C@@H]1C[C@H]1c1ccc(S(=O)(=O)NCc2cccnc2)cc1 , respond with its Ki.
Ans: 25

* * *

- systemUnderTest: IKKb (Homo sapiens, UniProt O14920)
- Sequence (O14920 1-756): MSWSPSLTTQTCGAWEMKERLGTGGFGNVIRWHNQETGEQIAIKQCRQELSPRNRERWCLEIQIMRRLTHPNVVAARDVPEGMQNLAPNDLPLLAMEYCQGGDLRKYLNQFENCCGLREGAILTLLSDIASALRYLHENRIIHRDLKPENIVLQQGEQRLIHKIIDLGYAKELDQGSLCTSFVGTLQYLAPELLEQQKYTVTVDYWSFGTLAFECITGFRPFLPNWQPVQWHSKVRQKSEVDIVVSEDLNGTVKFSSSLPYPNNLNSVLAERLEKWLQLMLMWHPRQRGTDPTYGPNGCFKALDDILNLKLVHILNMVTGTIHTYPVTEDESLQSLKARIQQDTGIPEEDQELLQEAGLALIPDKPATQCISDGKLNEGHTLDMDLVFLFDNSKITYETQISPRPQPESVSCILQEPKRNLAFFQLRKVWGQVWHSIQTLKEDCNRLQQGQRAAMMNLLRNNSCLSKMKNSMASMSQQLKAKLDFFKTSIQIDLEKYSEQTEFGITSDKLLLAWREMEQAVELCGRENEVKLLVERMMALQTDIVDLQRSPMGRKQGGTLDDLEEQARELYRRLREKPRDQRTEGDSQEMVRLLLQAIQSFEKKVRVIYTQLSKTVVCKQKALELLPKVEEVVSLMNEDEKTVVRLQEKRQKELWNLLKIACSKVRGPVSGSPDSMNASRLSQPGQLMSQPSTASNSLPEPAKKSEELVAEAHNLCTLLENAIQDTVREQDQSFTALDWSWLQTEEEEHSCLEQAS
# key: entry, value: pKi
# pKi = -log10(concentration in molar units)

>>> value("O=C(Nc1ccc2cnccc2c1F)[C@@H]1CC1c1ccc(S(=O)(=O)Nc2ccccn2)cc1 (mixture of isomers)")
6.84

Q: Fill in pKi for O=C(Nc1ccc2cncc(Cl)c2c1)C1CC1c1ccc(S(=O)(=O)Nc2ccccn2)cc1 (racemic) tested with IKKb (Homo sapiens, UniProt O14920).
Ans: 8.05

* * *

- systemUnderTest: UniProt O75116
- Sequence (O75116 whole entry, species assumed): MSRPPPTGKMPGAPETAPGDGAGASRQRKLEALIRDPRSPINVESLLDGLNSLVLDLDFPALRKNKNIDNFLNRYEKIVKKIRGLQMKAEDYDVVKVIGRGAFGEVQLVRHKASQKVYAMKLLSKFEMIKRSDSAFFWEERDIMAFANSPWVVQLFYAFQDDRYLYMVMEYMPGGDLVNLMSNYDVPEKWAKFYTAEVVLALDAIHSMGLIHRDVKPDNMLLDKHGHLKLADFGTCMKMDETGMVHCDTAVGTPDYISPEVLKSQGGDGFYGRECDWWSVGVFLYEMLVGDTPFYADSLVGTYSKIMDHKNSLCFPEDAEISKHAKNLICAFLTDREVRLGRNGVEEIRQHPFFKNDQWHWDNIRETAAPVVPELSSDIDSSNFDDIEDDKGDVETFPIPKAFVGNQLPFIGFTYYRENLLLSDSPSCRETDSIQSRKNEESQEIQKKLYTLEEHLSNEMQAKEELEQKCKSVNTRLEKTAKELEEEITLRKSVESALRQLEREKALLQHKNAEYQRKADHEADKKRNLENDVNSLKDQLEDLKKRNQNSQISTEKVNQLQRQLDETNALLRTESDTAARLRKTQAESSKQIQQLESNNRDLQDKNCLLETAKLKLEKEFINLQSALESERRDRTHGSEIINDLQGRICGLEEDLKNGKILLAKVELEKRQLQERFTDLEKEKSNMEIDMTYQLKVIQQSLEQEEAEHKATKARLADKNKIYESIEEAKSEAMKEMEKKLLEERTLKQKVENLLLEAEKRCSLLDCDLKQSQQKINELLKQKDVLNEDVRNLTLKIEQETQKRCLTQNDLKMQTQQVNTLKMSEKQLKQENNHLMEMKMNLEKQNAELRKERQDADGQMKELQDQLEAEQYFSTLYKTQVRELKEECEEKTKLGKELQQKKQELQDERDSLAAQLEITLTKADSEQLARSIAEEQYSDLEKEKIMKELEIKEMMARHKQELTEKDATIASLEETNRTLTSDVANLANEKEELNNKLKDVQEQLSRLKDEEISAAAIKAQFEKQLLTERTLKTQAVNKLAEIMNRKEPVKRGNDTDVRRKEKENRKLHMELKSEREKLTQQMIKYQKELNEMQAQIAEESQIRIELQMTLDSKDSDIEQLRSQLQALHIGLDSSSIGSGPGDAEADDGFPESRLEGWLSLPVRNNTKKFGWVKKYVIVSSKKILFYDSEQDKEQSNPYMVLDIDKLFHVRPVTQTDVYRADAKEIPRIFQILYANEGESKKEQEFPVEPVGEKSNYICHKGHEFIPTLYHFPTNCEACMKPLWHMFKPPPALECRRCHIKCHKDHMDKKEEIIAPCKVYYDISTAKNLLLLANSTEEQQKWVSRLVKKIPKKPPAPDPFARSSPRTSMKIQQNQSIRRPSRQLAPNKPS
- assayComment: biochemical
- experimentalParameters: ROCK2, Table 16
Criterion: Ki strictly less than 9 nM. Met: class 1. Not met: class 0.

>>> labelvalue("O=C(Nc1ccc2cnccc2c1)[C@@H]1C[C@H]1c1ccc(I)cc1")
"class 0"
>>> labelvalue("O=C(Nc1ccc2cnccc2c1)[C@@H]1C[C@H]1c1ccc(S(=O)(=O)NCC2CCNCC2)cc1")
"class 1"
>>> labelvalue("O=C(Nc1ccc2cnccc2c1)[C@@H]1C[C@H]1c1ccc(S(=O)(=O)NC2CCNCC2)cc1")
"class 1"
>>> labelvalue("O=C(Nc1ccc2cnccc2c1)[C@@H]1C[C@H]1c1ccc(S(=O)(=O)N2CCNCC2)cc1")
"class 0"
>>> labelvalue("O=C(Nc1ccc2cnccc2c1)[C@@H]1C[C@H]1c1ccc(S(=O)(=O)Nc2ccccc2)cc1")
"class 0"

Q: Does the reported Ki of O=C(Nc1ccc2cnccc2c1)[C@@H]1C[C@H]1c1ccc(S(=O)(=O)NC[C@H]2CCCNC2)cc1 stay below 9 nM?
Ans: class 1

* * *

- systemUnderTest: UniProtKB O60674
- assayComment: JAK kinase assay, JAK2 enzyme
- Type: biochemical
- experimentalParameters: Table 15; in brackets in the activity cell; read-out: JAK2 activity
Criterion: Ki strictly less than 200 nM. Met: condition met. Not met: condition not met.

>>> labelvalue("CC(C)(C)OC(=O)c1ccc([C@@H]2C[C@H]2C(=O)Nc2ccc3cnccc3c2)c(F)c1 (relative stereo) [Example E191]")
"condition not met"

Q: Does the reported Ki of O=C(NC[C@@H]1CCCNC1)c1ccc([C@@H]2C[C@H]2C(=O)Nc2ccc3cnccc3c2)cc1 [Example E57.2] stay below 200 nM?
Ans: condition met

Q: Does the reported Ki of O=C(NCc1ccccn1)c1ccc(C2CC2C(=O)Nc2ccc3cnccc3c2)c(F)c1 (stereo not drawn) [Example E194] stay below 200 nM?
Ans: condition met

Q: Does the reported Ki of CN(C)CCNC(=O)c1ccc(C2CC2C(=O)Nc2ccc3cnccc3c2)cc1 (stereo not drawn) [Example E37] stay below 200 nM?
Ans: condition not met

Q: Does the reported Ki of CC(C)(C)OC(=O)c1ccc(C2CC2C(=O)Nc2ccc3cnccc3c2)cc1 (stereo not drawn) [Example E191.1] stay below 200 nM?
Ans: condition not met

Q: Does the reported Ki of O=C(NCCN1CCCCC1)c1ccc(C2CC2C(=O)Nc2ccc3cnccc3c2)cc1 (stereo not drawn) [Example E39] stay below 200 nM?
Ans: condition not met

* * *

# key: entry, value: Ki
- systemUnderTest: UniProt:O75116
- assayComment: biochemical
- experimentalParameters: ROCK2, Table 16
Express the result in nM but write the number alone.

>>> value("O=C(Nc1ccc2cnccc2c1)[C@@H]1C[C@H]1c1ccc(S(=O)(=O)Nc2cccnc2)cc1")
24
>>> value("O=C(Nc1ccc2cnccc2c1)[C@@H]1C[C@H]1c1ccc(F)c(S(=O)(=O)Nc2ccccc2)c1")
240
>>> value("O=C(Nc1ccc2cnccc2c1)[C@@H]1C[C@H]1c1ccc(F)c(S(=O)(=O)Nc2ccccn2)c1")
12.5

Consider the record given below.
Q: Given O=C(Nc1ccc2cnccc2c1)[C@@H]1C[C@H]1c1ccc(S(=O)(=O)NC[C@@H]2CCCNC2)cc1 , respond with its Ki.
Ans: 4

* * *

# key: entry, value: pKi
- systemUnderTest: JAK2 (Homo sapiens, UniProt O60674)
- Sequence (O60674 whole entry, species assumed): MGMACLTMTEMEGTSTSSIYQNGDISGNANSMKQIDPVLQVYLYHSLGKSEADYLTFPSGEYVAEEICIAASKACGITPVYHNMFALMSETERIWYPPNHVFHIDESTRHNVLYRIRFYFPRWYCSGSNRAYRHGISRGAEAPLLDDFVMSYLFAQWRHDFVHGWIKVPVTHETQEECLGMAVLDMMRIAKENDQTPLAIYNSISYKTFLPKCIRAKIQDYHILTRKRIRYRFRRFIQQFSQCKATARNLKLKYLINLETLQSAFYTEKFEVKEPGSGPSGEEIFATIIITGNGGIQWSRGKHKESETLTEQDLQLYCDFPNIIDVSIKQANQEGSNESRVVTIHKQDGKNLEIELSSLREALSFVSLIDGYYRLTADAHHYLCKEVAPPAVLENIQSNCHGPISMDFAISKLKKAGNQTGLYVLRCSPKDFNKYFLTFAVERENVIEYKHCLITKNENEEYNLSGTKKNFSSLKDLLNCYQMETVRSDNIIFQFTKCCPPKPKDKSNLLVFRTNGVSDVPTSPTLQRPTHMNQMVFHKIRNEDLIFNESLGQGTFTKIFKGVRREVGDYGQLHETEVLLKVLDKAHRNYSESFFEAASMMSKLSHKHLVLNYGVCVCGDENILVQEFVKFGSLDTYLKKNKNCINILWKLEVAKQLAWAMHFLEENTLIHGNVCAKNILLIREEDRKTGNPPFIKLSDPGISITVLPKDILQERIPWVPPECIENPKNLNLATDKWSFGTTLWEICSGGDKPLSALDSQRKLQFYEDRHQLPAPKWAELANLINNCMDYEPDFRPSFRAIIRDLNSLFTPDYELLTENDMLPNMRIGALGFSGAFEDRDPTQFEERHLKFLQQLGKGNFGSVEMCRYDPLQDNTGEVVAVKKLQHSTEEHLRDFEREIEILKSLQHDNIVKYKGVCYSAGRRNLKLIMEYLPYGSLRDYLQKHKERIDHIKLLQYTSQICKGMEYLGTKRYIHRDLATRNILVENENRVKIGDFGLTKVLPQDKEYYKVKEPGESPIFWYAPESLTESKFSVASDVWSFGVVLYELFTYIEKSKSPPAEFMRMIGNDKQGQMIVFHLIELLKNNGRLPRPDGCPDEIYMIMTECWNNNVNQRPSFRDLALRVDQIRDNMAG
- assayComment: JAK kinase assay, JAK2 enzyme;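 also: JAK2 kinase reaction run 75 min at room temperature, leftover ATP read by Kinase-Glo luminescence, 11-point dilution series in 2.5% DMSO, percent of inhibitor-free DMSO control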
- Format: biochemical
- experimentalParameters: Table 15; in brackets in the activity cell; read-out: JAK2 activity
pKi: −log10 of the molar value.

>>> value("O=C(NCc1ccccn1)c1ccc(C2CC2C(=O)Nc2ccc3cnccc3c2)cc1 (stereo not shown)")
"7.00 to 7.19"

Q: Given O=C(OCc1ccccc1)c1ccc([C@@H]2C[C@H]2C(=O)Nc2ccc3cnccc3c2)cc1 [Example E115] , respond with its pKi.
Ans: 5.30 to 5.52

Q: Given O=C(NCC1CCNC1)c1ccc(C2CC2C(=O)Nc2ccc3cnccc3c2)cc1 (stereo not shown) , respond with its pKi.
Ans: 6.82 to 7.57

Q: Given Cc1cncc2ccc(NC(=O)C3CC3c3ccc(C(=O)NCc4cccnc4)cc3)cc12 (stereo not shown) , respond with its pKi.
Ans: 7.35 to 7.52

* * *

- systemUnderTest: Rho Kinase
- assayComment: ROCK kinase inhibition assay (Rho Kinase Activity, isoform not given)
- experimentalParameters: Table 15, mostly given as ranges
recordedEndpoint: Ki

Field: example entries. Status: answers known.
>>> value("CC(C)(C)OC(=O)c1ccc(C2CC(=O)N(c3ccc4cnccc4c3)C2)cc1F (stereo not drawn) [Example E230.1]")
"9300 nM"
>>> value("O=C(NCc1cccnc1)c1ccc([C@@H]2C[C@H]2C(=O)Nc2ccc3cnccc3c2)cc1 [Example E56]")
"0.5 to 3 nM"

Consider the record given below.
Q: Fill in Ki for O=C(NCc1ccccn1)c1ccc(C2CC2C(=O)Nc2ccc3cnccc3c2)cc1 (stereo not drawn) [Example E9] tested with Rho Kinase.
Ans: 3 to 5 nM

* * *

# key: entry, value: pKi
- systemUnderTest: Rho Kinase
- assayComment: ROCK kinase inhibition assay (Rho Kinase Activity, isoform not given)
- experimentalParameters: Table 15, mostly given as ranges
pKi: −log10 of the molar value. Structures can show the parent of a compound that is named as a salt.

Q: Given O=C(NCc1ccccn1)c1ccc(C2CC2C(=O)Nc2ccc3cnccc3c2)c(F)c1 (centres unmarked) [Example E194] , respond with its pKi.
Ans: 8.40 to 8.46

Q: Given O=C(NCc1ccncc1)c1ccc(C2CC2C(=O)Nc2ccc3cnccc3c2)cc1 (centres unmarked) [Example E10] , respond with its pKi.
Ans: 8.15 to 9.00

Q: Given O=C(NCc1cccnc1)c1ccc(C2CC(=O)N(c3ccc4cnccc4c3)C2)cc1 (centres unmarked) [Example E232] , respond with its pKi.
Ans: 4.80 to 5.19

Q: Given O=C(Nc1ccc2cnccc2c1)[C@@H]1C[C@H]1c1ccc(I)cc1 (relative stereo) [Example E251] , respond with its pKi.
Ans: 6.40 to 6.82

Q: Given O=C1CC(c2ccccc2)CN1c1ccc2cnccc2c1 (centres unmarked) , respond with its pKi.
Ans: 5.87 to 6.19

Q: Given CC(C)(C)OC(=O)N1CCCC1CNC(=O)c1ccc(C2CC2C(=O)Nc2ccc3cnccc3c2)cc1 (centres unmarked) [Example 19.1] , respond with its pKi.
Ans: 7.22 to 7.52

Q: Given COc1ccc(CNC(=O)c2ccc(C3CC3C(=O)Nc3ccc4cnccc4c3)cc2)cc1 (centres unmarked) [Example E15] , respond with its pKi.
Ans: 8.30 to 9.00

Q: Given O=C(OCc1ccccc1)c1ccc(C2CC2C(=O)Nc2cc3ccncc3cc2Cl)cc1 (centres unmarked) [Example E104.1] , respond with its pKi.
Ans: 7.12 to 7.82

Q: Given O=C(OCc1ccccn1)c1ccc([C@@H]2C[C@H]2C(=O)Nc2ccc3cnccc3c2)cc1 (racemic) [Example E99] , respond with its pKi.
Ans: 8.22 to 9.30

Q: Given O=C(OCc1ccccc1)c1cccc([C@@H]2C[C@H]2C(=O)Nc2ccc3cnccc3c2)c1 (relative stereo) [Example E170] , respond with its pKi.
Ans: 5.90 to 6.19

Q: Given O=C(NCc1cccnc1)c1cccc(C2CC2C(=O)Nc2ccc3cnccc3c2)c1 (centres unmarked) [Example E173] , respond with its pKi.
Ans: 9.00 to 9.15

Q: Given O=C(OCc1ccccc1)c1ccc([C@@H]2C[C@H]2C(=O)Nc2ccc3cnccc3c2)cc1 (relative stereo) [Example E96] , respond with its pKi.
Ans: 6.89 to 7.70

Q: Given O=C(O)c1ccc([C@@H]2C[C@H]2C(=O)Nc2ccc3cnccc3c2)cc1 [Example E116] , respond with its pKi.
Ans: 6.40 to 7.00

Q: Given O=C(Nc1ccc2cnccc2c1)[C@@H]1C[C@H]1c1ccc(S(=O)(=O)N2CCNCC2)cc1 (racemic) [Example E248H, dihydrochloride] , respond with its pKi.
Ans: 7.30 to 7.52

Q: Given O=C1CC(c2ccc(CNCc3cccnc3)cc2)CN1c1ccc2cnccc2c1 (centres unmarked) [Example E225] , respond with its pKi.
Ans: 5.66 to 5.87

Q: Given O=C(NCc1ccccc1)c1ccc([C@@H]2C[C@H]2C(=O)Nc2ccc3cnccc3c2F)cc1 [Example E115.1] , respond with its pKi.
Ans: 9.00 to 10.00

Q: Given O=C(NCC1CCNCC1)c1ccc(C2CC(=O)N(c3ccc4cnccc4c3)C2)cc1 (centres unmarked) [Example E234.2] , respond with its pKi.
Ans: 5.90 to 6.00

Q: Given CC(C)(C)OC(=O)N1CCC(CNC(=O)c2ccc(C3CC3C(=O)Nc3ccc4cnccc4c3)cc2)CC1 (centres unmarked) [Example E29.1] , respond with its pKi.
Ans: 9.00 to 9.30

Q: Given O=C(Nc1ccc2cnccc2c1)c1ccc(C2CC2C(=O)Nc2ccc3cnccc3c2)cc1 (centres unmarked) [Example E18] , respond with its pKi.
Ans: 8.10 to 9.10

Q: Given O=C(Nc1ccc2cnccc2c1)[C@@H]1C[C@H]1c1ccc(S(=O)(=O)NC[C@@H]2CCCNC2)cc1 [Example E248F, dihydrochloride] , respond with its pKi.
Ans: 8.30 to 8.52
